tested on: Escherichia coli; assay: Antimicrobial activity against Escherichia coli 10-1 after 18-24 hrs by two-fold serial dilution method; type: functional
assay.metric: MIC

Answered cases to consult:
compound: CS(=O)(=O)O.NCC1CN(c2nc3c(cc2F)c(=O)c(C(=O)O)cn3C2CC2)C/C1=N\OCc1ccc2c(c1)OCO2 (racemic)
MIC: 32 µg/mL

compound: COc1cc(CO/N=C2\CN(c3nc4c(cc3F)c(=O)c(C(=O)O)cn4C3CC3)CC2CN)c([N+](=O)[O-])cc1OC.CS(=O)(=O)O (racemic)
MIC: > 128 µg/mL

compound: COc1cc(CO/N=C2\CN(c3nc4c(cc3F)c(=O)c(C(=O)O)cn4C3CC3)CC2CN)ccc1OC(F)F.CS(=O)(=O)O (racemic)
MIC: > 128 µg/mL

compound: COc1cc(CO/N=C2\CN(c3nc4c(cc3F)c(=O)c(C(=O)O)cn4C3CC3)CC2CN)cc(OC)c1OC.CS(=O)(=O)O (racemic)
MIC: 128 µg/mL

compound: CS(=O)(=O)O.NCC1CN(c2nc3c(cc2F)c(=O)c(C(=O)O)cn3C2CC2)C/C1=N\OCc1cc2c(cc1[N+](=O)[O-])OCO2 (racemic)
MIC: > 128 µg/mL

compound: COc1cc(Br)c(CO/N=C2\CN(c3nc4c(cc3F)c(=O)c(C(=O)O)cn4C3CC3)CC2CN)cc1OC.CS(=O)(=O)O (racemic)
MIC: > 128 µg/mL

compound: COc1cccc(OC)c1CO/N=C1\CN(c2nc3c(cc2F)c(=O)c(C(=O)O)cn3C2CC2)CC1CN.CS(=O)(=O)O (racemic)
MIC: > 128 µg/mL

compound: CS(=O)(=O)O.NCC1CN(c2nc3c(cc2F)c(=O)c(C(=O)O)cn3C2CC2)C/C1=N\OCc1ccc(OCc2ccccc2)cc1 (racemic)
MIC: 0.03 µg/mL

compound: COc1cccc(CO/N=C2\CN(c3nc4c(cc3F)c(=O)c(C(=O)O)cn4C3CC3)CC2CN)c1OC.CS(=O)(=O)O (racemic)
MIC: > 128 µg/mL

compound: COc1ccc(CO/N=C2\CN(c3nc4c(cc3F)c(=O)c(C(=O)O)cn4C3CC3)CC2CN)c([N+](=O)[O-])c1OC.CS(=O)(=O)O (racemic)
MIC: > 128 µg/mL

*Q* Please look up its MIC: COc1ccc(OC)c(CO/N=C2\CN(c3nc4c(cc3F)c(=O)c(C(=O)O)cn4C3CC3)CC2CN)c1.CS(=O)(=O)O (racemic)
*A* > 128 µg/mL

*Q* Please answer likewise for COc1cc(CO/N=C2\CN(c3nc4c(cc3F)c(=O)c(C(=O)O)cn4C3CC3)CC2CN)ccc1OCc1ccccc1.CS(=O)(=O)O (racemic)
*A* > 128 µg/mL

*Q* Please answer likewise for COc1cc(F)c(CO/N=C2\CN(c3nc4c(cc3F)c(=O)c(C(=O)O)cn4C3CC3)CC2CN)cc1OC.CS(=O)(=O)O (racemic)
*A* > 128 µg/mL
